Recorded values, source paper PMC10663500.

Target: T1, mouse programmed cell death protein 1 Fc fusion protein (mPD-1-Fc), mPD-1 C60S (aa 25-167) (Mus musculus, UniProt Q02242, stabilised)
T1 construct: not cleaved; source: Expi293F, purified (Protein A, SEC; dimeric fraction); not shown: Fc (human), C-terminal, kept
Assay: SPR; Carterra LSA; Fab from the ammonium sulfate precipitate of the culture supernatant immobilised on a NiHC200M chip; hPD-1 (1-1024 nM) or mPD-1-Fc (4-1024 nM) as analyte, fourfold dilution series, no regeneration; HBS-EP pH 7.4, 25 °C; medians over the spots of a construct, KD = koff/kon
Settings: one partner purified
# koff listing for each entry below

{"binder": "toripalimab Fab L.R59A (Fab, V domains shown, as the heavy chain of Sm3; light chain of Sm3 with this change; numbers count from the chain's first residue; source: Brevibacillus, culture supernatant (ammonium sulfate precipitate); not shown: 6xHis, C-terminal, kept; 6xHN, C-terminal, kept) VH: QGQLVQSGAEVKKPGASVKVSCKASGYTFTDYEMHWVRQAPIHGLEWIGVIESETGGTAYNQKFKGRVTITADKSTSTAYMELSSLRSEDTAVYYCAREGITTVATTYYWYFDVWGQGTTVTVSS VL: DVVMTQSPLSLPVTLGQPASISCRSSQSIVHSNGNTYLEWYLQKPGQSPQLLIYKVSNAFSGVPDRFSGSGSGTDFTLKISRVEAEDVGVYYCFQGSHVPLTFGQGTKLEIK", "koff, s⁻¹": 0.00551}
{"binder": "toripalimab Fab H.F64Y (Fab, V domains shown, heavy chain of Sm3 with this change; numbers count from the chain's first residue; as the light chain of Sm3; source: Brevibacillus, culture supernatant (ammonium sulfate precipitate); not shown: 6xHis, C-terminal, kept; 6xHN, C-terminal, kept) VH: QGQLVQSGAEVKKPGASVKVSCKASGYTFTDYEMHWVRQAPIHGLEWIGVIESETGGTAYNQKYKGRVTITADKSTSTAYMELSSLRSEDTAVYYCAREGITTVATTYYWYFDVWGQGTTVTVSS VL: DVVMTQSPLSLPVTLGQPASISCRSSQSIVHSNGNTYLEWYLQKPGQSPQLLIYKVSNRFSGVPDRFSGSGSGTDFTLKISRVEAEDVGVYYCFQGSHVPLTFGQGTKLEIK", "koff, s⁻¹": 0.00224}
{"binder": "toripalimab Fab H.S53Y (Fab, V domains shown, heavy chain of Sm3 with this change; numbers count from the chain's first residue; as the light chain of Sm3; source: Brevibacillus, culture supernatant (ammonium sulfate precipitate); not shown: 6xHis, C-terminal, kept; 6xHN, C-terminal, kept) VH: QGQLVQSGAEVKKPGASVKVSCKASGYTFTDYEMHWVRQAPIHGLEWIGVIEYETGGTAYNQKFKGRVTITADKSTSTAYMELSSLRSEDTAVYYCAREGITTVATTYYWYFDVWGQGTTVTVSS VL: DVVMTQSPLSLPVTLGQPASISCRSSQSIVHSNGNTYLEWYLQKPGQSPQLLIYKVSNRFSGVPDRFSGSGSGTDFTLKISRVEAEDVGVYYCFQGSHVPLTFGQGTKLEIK", "koff, s⁻¹": 0.00628}
{"binder": "toripalimab Fab L.S25A (Fab, V domains shown, as the heavy chain of Sm3; light chain of Sm3 with this change; numbers count from the chain's first residue; source: Brevibacillus, culture supernatant (ammonium sulfate precipitate); not shown: 6xHis, C-terminal, kept; 6xHN, C-terminal, kept) VH: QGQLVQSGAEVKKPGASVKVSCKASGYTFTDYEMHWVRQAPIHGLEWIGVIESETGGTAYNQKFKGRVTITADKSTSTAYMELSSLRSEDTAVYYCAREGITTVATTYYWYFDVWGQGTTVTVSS VL: DVVMTQSPLSLPVTLGQPASISCRASQSIVHSNGNTYLEWYLQKPGQSPQLLIYKVSNRFSGVPDRFSGSGSGTDFTLKISRVEAEDVGVYYCFQGSHVPLTFGQGTKLEIK", "koff, s⁻¹": 0.00369}
{"binder": "toripalimab Fab L.V99D (Fab, V domains shown, as the heavy chain of Sm3; light chain of Sm3 with this change; numbers count from the chain's first residue; source: Brevibacillus, culture supernatant (ammonium sulfate precipitate); not shown: 6xHis, C-terminal, kept; 6xHN, C-terminal, kept) VH: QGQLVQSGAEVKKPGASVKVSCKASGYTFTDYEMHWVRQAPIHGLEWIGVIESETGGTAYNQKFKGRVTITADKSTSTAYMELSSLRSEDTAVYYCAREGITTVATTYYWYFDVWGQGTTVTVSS VL: DVVMTQSPLSLPVTLGQPASISCRSSQSIVHSNGNTYLEWYLQKPGQSPQLLIYKVSNRFSGVPDRFSGSGSGTDFTLKISRVEAEDVGVYYCFQGSHDPLTFGQGTKLEIK", "koff, s⁻¹": 0.000759}
